TEST SUMMARY: p53 small molecule agonists, cell-based qHTS assay: qHTS cell viability counter screen (AID 1963581); also: % is scaled to controls: 0 for no effect and ±100 for the full control effect; nearly all actives have a fitted effect of over 45% in size
TEST PARAMETERS: p53RE-bla HCT-116 viability, ATP luminescence, 16 h; series mostly up to 66 µM
Results filed as inconclusive are left out. Activity calls are given as the source filed them. Calls follow the shape of the full dose curve.
RESULT TYPE: activity change, negative = cytotoxicity

> print(dat)
                                    compound                          result
 1  CCNC(=O)C(C)OC(=O)Nc1ccccc1 (stereo unspecified)                        inactive
 2                    O=C=NCc1cccc(CN=C=O)c1   8.14% [at 13.5 µM] (inactive)
 3  COc1ccc(CCN(C)CCCC(C#N)(c2cc(OC)c(OC)c(OC)c2)C(C)C)cc1OC (stereo unspecified)                        inactive
 4  CC12CCC(CC1=O)C2(C)C (stereo unspecified)                        inactive
 5              O=C(CCBr)N1CCN(C(=O)CCBr)CC1                        inactive
 6  C[N+]1(CC2COC(c3ccccc3)(c3ccccc3)O2)CCCCC1 (stereo unspecified)  -20.9% [at 13.5 µM] (inactive)
 7  CC(=O)OC[C@H]1O[C@@H](n2ncc(=O)[nH]c2=O)[C@H](OC(C)=O)[C@@H]1OC(C)=O                        inactive
 8  Cc1ccccc1N1C(=O)c2cc(S(N)(=O)=O)c(Cl)cc2NC1C (stereo unspecified)                        inactive
 9      C[Si](NC1CCCCC1)(NC1CCCCC1)NC1CCCCC1                        inactive
10                                CCOC(=O)CC                        inactive
11                     CC(C)(O)C(=O)c1ccccc1                        inactive
12    CCCCCCCCCOC(=O)c1ccccc1C(=O)OCCCCCCCCC                        inactive
13         COc1ccc(NS(=O)(=O)c2ccc(N)cc2)nn1                        inactive
14                              Cc1ccc(N)nc1                        inactive
15  FC(F)OC(Cl)C(F)(F)F (stereo unspecified)                        inactive
16  CCN(CC)C(=O)Nc1ccc(OCC(O)CNC(C)(C)C)c(C(C)=O)c1 (stereo unspecified)                        inactive
17  Cc1cc(OI)c(C(C)C)cc1-c1cc(C(C)C)c(OI)cc1C                        inactive
18  CCc1ccc(C(=O)C(C)CN2CCCCC2)cc1 (stereo unspecified)                        inactive
19  CCOC(=O)OCC/C(SC(=O)OCC)=C(\C)N(C=O)Cc1cnc(C)nc1N                        inactive
20        O=C(OCCCCCCOC(=O)c1ccccc1)c1ccccc1                        inactive
21                [Cl][Pt-2]([Cl])([Cl])[Cl]                        inactive
22  CC(C)(C)c1cc(CCC(=O)OCCSCCOC(=O)CCc2cc(C(C)(C)C)c(O)c(C(C)(C)C)c2)cc(C(C)(C)C)c1O                        inactive
23                   O=C(O)c1ccc2cc(O)ccc2c1                        inactive
24    COc1ccc2nc(SCc3ncc(C)c(OC)c3C)[nH]c2c1                        inactive
25                    Brc1c2ccccc2cc2ccccc12                        inactive
26                           Cc1cnc(C)c(C)n1                        inactive

---

EXPERIMENTAL TARGET: 5-hydroxytryptamine receptor 2A (Homo sapiens)
TEST SUMMARY: 5-hydroxytryptamine receptor 2A (HTR2A) small molecule antagonists, cell-based qHTS assay (AID 1963586); also: nearly all actives have a fitted effect of over 45% in size; also: potency is read from the fitted curve at half-maximal effect
TEST PARAMETERS: HTR2A-CHO cells, DOI-induced calcium flux, fluorescence; series mostly up to 61.5 µM
Inconclusive results are not listed. Active and inactive are the calls of the source. The call rests on the fitted dose curve.
RESULT TYPE: Potency

> print(dat)
                                   compound            result
1  CN(C)c1ccc(C(c2ccccc2)c2ccc(N(C)C)cc2)cc1          inactive
2         CCCCOCCOC(=O)COc1cc(Cl)c(Cl)cc1Cl  9.42 µM (active)
3  CO[C@@H]1COCC[C@@H]1N[C@@H]1CC[C@@](C(=O)N2CCc3ncc(C(F)(F)F)cc3C2)(C(C)C)C1          inactive
4                     CC(=O)CC(=O)OC(C)(C)C          inactive
5                           Cc1cccc2nccnc12          inactive
6  CC(=O)O[C@@H]1CC2CCC1(C)C2(C)C (stereo partly specified)          inactive

---

TEST SUMMARY: cAMP Responsive Elements (CRE) small molecule antagonists, cell-based qHTS assay (AID 1963591); also: % is scaled to controls: 0 for no effect and ±100 for the full control effect
TEST PARAMETERS: CRE-bla HEK293T, beta-lactamase FRET ratio; series mostly up to 92.4 µM
Records with an inconclusive call do not appear. Active and inactive are the calls of the source. The call rests on the fitted dose curve; in most records, active means well fitted inhibition curve with a large enough effect in the signal ratio in the repeat runs (not every such curve was filed as active); inconclusive means weak or mixed curves, or effect the other way; inactive means flat fitted curve, though single readings scatter; the % refers to the signal ratio.
RESULT TYPE: activity change, negative = inhibition

> print(dat)
                                   compound                             result.type    result
1                       O=c1c2ccccc2nnn1CCl  activity change, negative = inhibition  inactive
2  CCCCCCCCCCCCCC(=O)OCC(O)CO (configuration not stated)  activity change, negative = inhibition  inactive
3                  N#CCc1ccccc1[N+](=O)[O-]  activity change, negative = inhibition  inactive
4                       COC(=O)c1cccc(Cl)c1  activity change, negative = inhibition  inactive
5  NS(=O)(=O)c1cc(-c2nn[nH]n2)c(NCc2cccs2)cc1Cl  activity change, negative = inhibition  inactive
6     CCCCCC(C)N (configuration not stated)  activity change, negative = inhibition  inactive
7         CCOC(=O)c1ccc(NC(=O)CN2CCCCC2)cc1  activity change, negative = inhibition  inactive

---

TEST SUMMARY: Nuclear factor erythroid 2-related factor 2/antioxidant responsive element (Nrf2/ARE) small molecule agonists: qHTS cell viability counter screen in human keratinocytes (AID 1919968); also: nearly all actives have a fitted effect of over 55% in size
TEST PARAMETERS: KeratinoSens HaCaT ARE cells viability, CellTiter-Fluor, 24 h; series mostly up to 92.4 µM
Inconclusive results are not listed. The source made the active and inactive calls. Calls follow the shape of the dose curve; as a rule, active = well fitted cell-killing curve with a large enough effect in the repeat runs; inconclusive = weak or mixed curves, or effect the other way; inactive = flat fitted curve, though single readings scatter.
Possible outcomes: true (1) for active, false (0) for inactive

COMPOUND	CLASSIFICATION
CC(C)(C)C1CCC(=O)CC1	false (0)
Cc1c(C)c2c(c(C)c1OC(=O)CCC(=O)OCCO)CC[C@@](C)(CCC[C@H](C)CCC[C@H](C)CCCC(C)C)O2	true (1)
N=C1N=C(N)c2ccccc21	true (1)
O=CC(=O)c1ccccc1	false (0)
Cc1nc2n(c(=O)c1CCN1CCC(c3noc4cc(F)ccc34)CC1)CCCC2	false (0)
CC(Oc1cc(Cl)ccc1Cl)C(=O)O (configuration not stated)	false (0)
COc1cc2c(cc1N)oc1ccccc12	false (0)
CN[C@@H]1[C@H](O)[C@H](NC)[C@H]2O[C@@]3(O)C(=O)C[C@@H](C)O[C@H]3O[C@@H]2[C@H]1O	false (0)
O=C(C1CCCCC1)N1CC(=O)N2CCCc3ccccc3C2C1 (configuration not stated)	false (0)
Nc1ccc(Cl)c([N+](=O)[O-])c1	false (0)
CCCC(=O)OCOC(=O)C1=C(C)NC(C)=C(C(=O)OC)C1c1cccc(Cl)c1Cl (configuration not stated)	false (0)
C[C@@H]1O[C@@H](O[C@@H]2[C@@H](O)[C@H](OCCc3ccc(O)c(O)c3)O[C@H](CO[C@@H]3O[C@H](CO)[C@@H](O)[C@H](O)[C@H]3O)[C@H]2OC(=O)/C=C/c2ccc(O)c(O)c2)[C@H](O)[C@H](O)[C@H]1O	false (0)
COc1cc(C(=O)OC(COCCC(C)C)CN2CCOCC2)cc(OC)c1OC (configuration not stated)	false (0)
CCCCC(CC)COC(=O)CC#N (configuration not stated)	false (0)
N#C[C@@H]1CC(F)(F)CN1C(=O)CNC1CC2CCC(C1)N2c1ncccn1 (some centres not stated)	false (0)
C/C=C/C=C/CCCCCCCO	false (0)
O=C(O)CCC(=O)c1ccc(-c2ccccc2)cc1	false (0)
O=c1cc(-c2ccccc2)oc2ccc3ccccc3c12	false (0)
CCN(CC)C(=O)/C(C#N)=C/c1cc(O)c(O)c([N+](=O)[O-])c1	false (0)
O=C(Nc1ccccc1)c1ccccc1O	false (0)
CC(C)CCCCCCOC(=O)CCCCC(=O)OCCCCCCC(C)C	false (0)
CCOC(=O)[C@H](CCc1ccccc1)N[C@H]1CS[C@H](c2cccs2)CN(CC(=O)O)C1=O	false (0)
